Test system: PSMA-expressing LNCAP cancer xenografts
Experiment: Biodistribution of ^68Ga-labeled PSMA-targeting tracers
Assay type: in vivo, mice
Conditions: 1 h post-injection
readout: Tissue (% ID/g): Testes

O=C([O-])CN1CCN(CC(=O)[O-])CCN(CC(=O)NC[C@H]2CC[C@H](C(=O)N[C@@H](Cc3c4ccccc4cc4ccccc34)C(=O)NCCCC[C@H](NC(=O)N[C@@H](CCC(=O)O)C(=O)O)C(=O)O)CC2)CCN(CC(=O)[O-])CC1.[68Ga+3] [^68Ga-HTK03041] :: 1.34

P. O=C([O-])CN1CCN(CC(=O)[O-])CCN(CC(=O)NC[C@H]2CC[C@H](C(=O)N[C@@H](Cc3ccc4cc5ccccc5cc4c3)C(=O)NCCCC[C@H](NC(=O)N[C@@H](CCC(=O)O)C(=O)O)C(=O)O)CC2)CCN(CC(=O)[O-])CC1.[68Ga+3] [^68Ga-HTK03027]
Q. O=C([O-])CN1CCN(CC(=O)[O-])CCN(CC(=O)NC[C@H]2CC[C@H](C(=O)N[C@@H](Cc3ccc4ccc5cccc6ccc3c4c56)C(=O)NCCCC[C@H](NC(=O)N[C@@H](CCC(=O)O)C(=O)O)C(=O)O)CC2)CCN(CC(=O)[O-])CC1.[68Ga+3] [^68Ga-HTK03029]
R. CCCCCC[C@H](NC(=O)[C@H]1CC[C@H](CNC(=O)CN2CCN(CC(=O)[O-])CCN(CC(=O)[O-])CCN(CC(=O)[O-])CC2)CC1)C(=O)NCCCC[C@H](NC(=O)N[C@@H](CCC(=O)O)C(=O)O)C(=O)O.[68Ga+3] [^68Ga-HTK03026]
Req: # rank_down: sort by Tissue (% ID/g): Testes, max first Thanks in advance for listing the labels in the requested order.
Resp: Q, P, R

---

Tested on: PSMA-expressing LNCAP cancer xenografts
Experiment: Biodistribution of ^68Ga-labeled PSMA-targeting tracers
Assay type: in vivo, mice
Conditions: 1 h post-injection
readout: tumor-to-background contrast ratio Tumor: Muscle

Consider the following illustrative entries.
CCCCCC[C@H](NC(=O)[C@H]1CC[C@H](CNC(=O)CN2CCN(CC(=O)[O-])CCN(CC(=O)[O-])CCN(CC(=O)[O-])CC2)CC1)C(=O)NCCCC[C@H](NC(=O)N[C@@H](CCC(=O)O)C(=O)O)C(=O)O.[68Ga+3] [^68Ga-HTK03026] :: 52.8
O=C([O-])CN1CCN(CC(=O)[O-])CCN(CC(=O)NC[C@H]2CC[C@H](C(=O)N[C@@H](Cc3c4ccccc4cc4ccccc34)C(=O)NCCCC[C@H](NC(=O)N[C@@H](CCC(=O)O)C(=O)O)C(=O)O)CC2)CCN(CC(=O)[O-])CC1.[68Ga+3] [^68Ga-HTK03041] :: 31.6

I. O=C([O-])CN1CCN(CC(=O)[O-])CCN(CC(=O)NC[C@H]2CC[C@H](C(=O)N[C@@H](Cc3ccc4cc5ccccc5cc4c3)C(=O)NCCCC[C@H](NC(=O)N[C@@H](CCC(=O)O)C(=O)O)C(=O)O)CC2)CCN(CC(=O)[O-])CC1.[68Ga+3] [^68Ga-HTK03027]
II. O=C([O-])CN1CCN(CC(=O)[O-])CCN(CC(=O)NC[C@H]2CC[C@H](C(=O)N[C@@H](Cc3ccc4ccc5cccc6ccc3c4c56)C(=O)NCCCC[C@H](NC(=O)N[C@@H](CCC(=O)O)C(=O)O)C(=O)O)CC2)CCN(CC(=O)[O-])CC1.[68Ga+3] [^68Ga-HTK03029]
Req: Could you tell me which of I and II has the lower tumor-to-background contrast ratio Tumor: Muscle reading? The response must carry the label of the picked entry.
Resp: II
